The entries below are paired with their reported log10 of MIC.
Tested on: Staphylococcus aureus
Experiment notes: Antibacterial activity against Staphylococcus aureus NCIM-2079 after 24 hrs by broth dilution method
Type: functional
Experimental parameters: NCIM-2079, 24 h
Base-10 log of MIC, unit µg/mL.

Solved cases (3 shown):
O=[N+]([O-])c1ccccc1C1CC(c2ccccc2)=NN1C(=S)Nc1nc(Nc2ccc(F)cc2)nc(Nc2ccc(F)cc2)n1 (stereo unspecified)	1.49
S=C(Nc1nc(Nc2ccc(Cl)cc2)nc(Nc2ccc(Cl)cc2)n1)N1N=C(c2ccccc2)CC1c1ccc(Cl)cc1 (stereo unspecified)	1.19
O=[N+]([O-])c1ccc(C2CC(c3ccccc3)=NN2C(=S)Nc2nc(Nc3ccc(Cl)cc3)nc(Nc3ccc(Cl)cc3)n2)cc1 (stereo unspecified)	2.10

Record summary for Fc1ccc(Nc2nc(NC(=S)N3N=C(c4ccccc4)CC3c3ccc(Cl)cc3)nc(Nc3ccc(F)cc3)n2)cc1 (stereo unspecified) : reported log10 of MIC = 1.49

What the record says about O=[N+]([O-])c1ccc(C2CC(c3ccccc3)=NN2C(=S)Nc2nc(Nc3cccc([N+](=O)[O-])c3)nc(Nc3cccc([N+](=O)[O-])c3)n2)cc1 (stereo unspecified) : log10 of MIC is 1.49
